Target: acetylcholine receptor
Assay: SPR, receptor immobilized, peptide 10 uM
Returns rule met if the recorded Binding affinity (RU) is greater than or equal to 20 RU, and rule not met otherwise.

See these solved cases before continuing.
# Binder, Group
data = [
    ("RKSFYR [6mer-1-170]", "rule met"),
    ("RFDPK [5mer-1057]", "rule not met"),
    ("RRLIRK [6mer-1-172]", "rule met"),
    ("KMPER [5mer-762]", "rule met"),
    ("RMHKK [5mer-1068]", "rule not met"),
]

Hi, just wondering whether RKRQCR [6mer-1-150] shows Binding affinity (RU) of 20 RU or higher.
rule met

Hi, just wondering whether RRSIRR [6mer-1-197] shows Binding affinity (RU) of 20 RU or higher.
rule met

Hi, just wondering whether RPAHKK [6mer-2-897] shows Binding affinity (RU) of 20 RU or higher.
rule not met

Hi, just wondering whether RMEKK [5mer-792] shows Binding affinity (RU) of 20 RU or higher.
rule met
